- Assay target: hA2b/CHO (Homo sapiens (Human))
- Protocol notes: cAMP inhibition assay in hA2b/CHO cells, 10 μM adenosine
- Type: cell-based
- Assay context: read-out: cAMP & FLIPR IC50 (nM) hA2b
// NB: equality with 400 nM counts as rule not met; only IC50 strictly below is rule met

molecule="CNC(=O)CCNC(=O)c1nc(-c2ccc3ncc(C)n3c2)c(-c2ncco2)nc1N [Example 225]" class="rule met"

Here's an entry: Cc1cnc2ccc(-c3nc(C(=O)NCC4CCCCN4C)c(N)nc3-c3ncco3)cn12 (single isomer, unassigned; isomer 2) [Example 125] . Is its IC50 below 400 nM?
rule not met

Then this molecule: Nc1nc(-c2ncco2)c(-c2ccc(=O)n(C3COC3)c2)nc1C(=O)NCc1c(F)cccc1F [Example 42]
rule met

What about this molecule? Cc1cnc2ccc(-c3nc(C(=O)NCCc4nccn4C)c(N)nc3-c3ncco3)cn12 [Example 205]
rule met

And Cc1cnc2ccc(-c3nc(C(=O)NC[C@H]4CCCO4)c(N)nc3-n3nccn3)cn12 [Cmpd. 229] ?
rule met

Then what about the molecule Cc1cnc2ccc(-c3nc(C(=O)NCC4COCCO4)c(N)nc3-c3ncco3)cn12 (racemic) [Example 211] ?
rule met

Same lookup for Cc1nc(CNC(=O)c2nc(-c3ccc4nccn4c3)c(-c3ncco3)nc2N)cs1 [Example 44] , please.
rule not met

Please give the result for Cc1cnc2ccc(-c3nc(C(=O)NC[C@@H]4CCCN4)c(N)nc3-c3ncco3)cn12 [Example 123] too.
rule not met

// same read-out, input: COCCOc1cccnc1CNC(=O)c1nc(-c2ccc3ncn(C)c3c2)c(-c2ccc(F)cc2)nc1N [Example 114]
rule met

COc1ccccc1CNC(=O)c1nc(-c2ccc(=O)n(C(C)C)c2)c(-c2ccc(F)cc2)nc1N [Example 70] ?
rule not met

----------
- Assay target: hADORA1/CHO (hA1 expressing) cells (Homo sapiens (Human), UniProt P30542)
- Sequence (P30542 whole entry): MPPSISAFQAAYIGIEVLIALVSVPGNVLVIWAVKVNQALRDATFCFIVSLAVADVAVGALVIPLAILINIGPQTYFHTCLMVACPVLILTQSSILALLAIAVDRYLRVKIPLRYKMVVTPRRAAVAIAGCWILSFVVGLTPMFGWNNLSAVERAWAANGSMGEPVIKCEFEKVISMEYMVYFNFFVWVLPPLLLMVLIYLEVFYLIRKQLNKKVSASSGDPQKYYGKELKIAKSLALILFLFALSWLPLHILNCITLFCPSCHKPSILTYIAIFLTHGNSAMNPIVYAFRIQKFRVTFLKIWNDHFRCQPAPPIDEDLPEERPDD
- Protocol notes: cell-based
- Assay context: FLIPR inhibition, 10 μM adenosine, read-out: cAMP & FLIPR IC50 (nM) hA1
Mark each entry Met if its IC50 sits below 400 nM, and Not met for all others.

compound=COc1ccccc1CNC(=O)c1nc(-c2ccc(=O)n(C(F)F)c2)c(-c2ccc(F)cc2)nc1N class=Met
compound=Cc1cnc2ccc(-c3nc(C(=O)NCc4cccc(N5C[C@H]6CC[C@@H](C5)N6C)n4)c(N)nc3-c3ncco3)cn12 class="Not met"
compound=Cc1cnc2ccc(-c3nc(C(=O)NCc4cccc(N5CCN(C)CC5)n4)c(N)nc3-c3ncco3)cn12 class="Not met"
compound=Cn1cnc2ccc(-c3nc(C(=O)NCc4ncccc4OCC(N)=O)c(N)nc3-c3ccc(F)cc3)cc21 class=Met

Does Cc1cnc2ccc(-c3nc(C(=O)NCc4cccc(N5CCC(N(C)C)C5)n4)c(N)nc3-c3ncco3)cn12 (single isomer, unassigned) [Cmpd. 235] have IC50 strictly under 400 nM?
Not met

Also need Cc1cccc(CNC(=O)c2nc(-c3ccc(=O)n(C)c3)c(-c3ncco3)nc2N)n1 , thanks.
Not met

----------
- Assay target: hA2b/CHO (Homo sapiens (Human), UniProt P29275)
- Sequence (P29275 whole entry): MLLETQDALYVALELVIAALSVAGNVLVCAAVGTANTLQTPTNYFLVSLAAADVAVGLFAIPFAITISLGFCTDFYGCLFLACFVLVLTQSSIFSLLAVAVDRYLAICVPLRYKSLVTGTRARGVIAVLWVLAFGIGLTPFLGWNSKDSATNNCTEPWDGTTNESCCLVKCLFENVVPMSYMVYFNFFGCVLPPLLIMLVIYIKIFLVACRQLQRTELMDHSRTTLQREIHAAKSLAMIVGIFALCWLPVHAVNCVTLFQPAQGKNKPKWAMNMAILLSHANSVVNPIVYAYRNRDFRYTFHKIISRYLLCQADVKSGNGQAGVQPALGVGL
- Protocol notes: cAMP inhibition assay in hA2b/CHO cells, 10 μM adenosine;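 further: cells exposed to compound 30 min at 37 °C, then stimulated with adenosine a further 30 min, cAMP read after 60 min at room temperature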
- Assay type: cell-based
- Assay context: read-out: cAMP & FLIPR IC50 (nM) hA2b
Documented log10 of IC50 across a set of compounds
Hey, these are logged values: log10 of IC50, nM being the unit before logging.

The cases that follow already have their log10 of IC50 on record.
compound="Cc1cnc2ccc(-c3nc(C(=O)NCC4CC4)c(N)nc3-c3ncco3)cn12 [Example 155]" parameter_measured="log10 of IC50" reported_value=2.27
compound="Cc1cnc2ccc(-c3nc(C(=O)NCc4cnccc4N(C)C)c(N)nc3-c3ncco3)cn12 [Example 118]" parameter_measured="log10 of IC50" reported_value=0.83
compound="COC(C)CNC(=O)c1nc(-c2ccc3ncc(C)n3c2)c(-c2ncco2)nc1N (single isomer, unassigned; isomer 1) [Example 248]" parameter_measured="log10 of IC50" reported_value=2.15
compound="COc1ccccc1CNC(=O)c1nc(-c2cc(C)nc(Cl)c2)c(-c2ccc(F)cc2)nc1N [Example 68]" parameter_measured="log10 of IC50" reported_value=2.98
compound="Cc1cnc2ccc(-c3nc(C(=O)NCC4CCO4)c(N)nc3-c3ncco3)cn12 (single isomer, unassigned) [Example 134]" parameter_measured="log10 of IC50" reported_value=2.50
compound="Cc1cnc2ccc(-c3nc(C(=O)NCCN(C)c4ccccc4)c(N)nc3-c3ncco3)cn12 [Example 244]" parameter_measured="log10 of IC50" reported_value=2.20
compound="Cc1cnc2ccc(-c3nc(CNC(=O)[C@@H]4CCCN4C)c(N)nc3-c3ccc(F)cc3)cn12 [Example 156]" parameter_measured="log10 of IC50" reported_value=3.08

// lookup log10 of IC50 for Nc1ccnc(CNC(=O)c2nc(-c3ccc4nccn4c3)c(-c3ncco3)nc2N)n1 [Example 95]
1.89

----------
Entries annotated with measured IC50
- Assay target: hA1 (Homo sapiens (Human))
- Sequence (P30542 whole entry): as the sequence (P30542 whole entry) above
- Assay context: hA1 membrane, [3H]-DPCPX; read-out: Binding Affinity (IC50 nM) hA1
Output spec: scalar in nM, unitless text.

The examples below pair each entry with its known result.
compound=Cc1cnc2ccc(-c3nc(C(=O)NC[C@H]4CCCO4)c(N)nc3-c3ncco3)cn12 reported_value=78
compound=CN(C)c1cccnc1CNC(=O)c1nc(-c2ccc(=O)n(C)c2)c(-c2ncco2)nc1N reported_value=15
compound=Cc1cnc2ccc(-c3nc(C(=O)NC(C)C)c(N)nc3-c3ncco3)cn12 reported_value=271
compound=Nc1nc(-c2ncco2)c(-c2ccc3nccn3c2)nc1C(=O)NCc1ncccc1F reported_value=245
compound=COc1ccccc1CNC(=O)c1nc(-c2cc(C)nc(C)c2)c(-c2ccc(C)o2)nc1N reported_value=52

Would you mind telling me what IC50 value was observed for Cn1cc(-c2nc(C(=O)NC(CO)c3c(F)cccc3F)c(N)nc2-c2ncco2)ccc1=O (stereo not drawn) ?
10

Another compound to look at: Cc1cnc2ccc(-c3nc(C(=O)NCc4ncccc4F)c(N)nc3-c3ncco3)cn12
5.6

Cc1cnc2ccc(-c3nc(C(=O)NC4CCC4)c(N)nc3-c3ncco3)cn12 ?
475

Now the same for COCCNC(=O)c1nc(-c2ccc3ncc(C)n3c2)c(-c2ncco2)nc1N
108

// same read-out, input: Cn1cc(-c2nc(C(=O)NCc3c(F)cccc3F)c(N)nc2-c2ncco2)ccc1=O
16

----------
- Assay target: hA2a/CHO (Homo sapiens (Human), UniProt P29274)
- Sequence (P29274 whole entry): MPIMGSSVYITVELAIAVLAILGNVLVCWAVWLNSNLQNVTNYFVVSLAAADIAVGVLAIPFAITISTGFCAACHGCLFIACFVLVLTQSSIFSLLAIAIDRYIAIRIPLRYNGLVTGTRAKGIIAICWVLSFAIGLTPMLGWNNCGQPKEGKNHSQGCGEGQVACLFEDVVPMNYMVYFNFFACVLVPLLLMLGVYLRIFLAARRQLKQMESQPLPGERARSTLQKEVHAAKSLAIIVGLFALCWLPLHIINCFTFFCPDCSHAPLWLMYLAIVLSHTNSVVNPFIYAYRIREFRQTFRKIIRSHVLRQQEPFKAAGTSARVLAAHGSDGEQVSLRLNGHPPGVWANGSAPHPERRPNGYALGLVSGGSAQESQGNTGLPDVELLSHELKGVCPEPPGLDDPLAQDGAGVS
- Protocol notes: cAMP inhibition assay in hA2a/CHO cells, 10 μM adenosine
- Assay type: cell-based
- Assay context: read-out: cAMP & FLIPR IC50 (nM) hA2a
Examples of molecules with documented IC50 follow.
Express your answer in nM, writing the number without its unit.

Worked cases, IC50 given:
molecule="Cc1cnc2ccc(-c3nc(C(=O)N[C@H]4CCOC4)c(N)nc3-c3ncco3)cn12 [Example 277]" parameter_measured=IC50 reported_value=12
molecule="Cc1cnc2ccc(-c3nc(C(=O)NCc4cccc(N5CC6(CN(C)C6)C5)n4)c(N)nc3-c3ncco3)cn12 [Example 284]" parameter_measured=IC50 reported_value=0.7
molecule="Cc1cnc2ccc(-c3nc(C(=O)NCCC#N)c(N)nc3-c3ncco3)cn12 [Example 142]" parameter_measured=IC50 reported_value=10

Please report the recorded IC50 for COC1CCCC(NC(=O)c2nc(-c3ccc4ncc(C)n4c3)c(-c3ncco3)nc2N)C1 (single isomer, unassigned; isomer4) [Example 295] .
13

// same read-out, input: Cc1cnc2ccc(-c3nc(CNC(=O)[C@H]4CCCN4C)c(N)nc3-c3cc(F)cc(F)c3)cn12 [Example 291]
1.1

----------
- Assay target: hA2a/CHO (Homo sapiens (Human), UniProt P29274)
- Protocol notes: cAMP inhibition assay in hA2a/CHO cells, 10 μM adenosine;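 further: compounds added to cells 30 min ahead of adenosine, then a further 30 min at 37 °C with adenosine before cAMP detection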
- Format: cell-based
- Assay context: read-out: cAMP & FLIPR IC50 (nM) hA2a
Parameter measured: IC50

Recorded IC50, per entry:
molecule="CN1CCCC1CNC(=O)c1nc(-c2ccc3ncc(C(F)(F)F)n3c2)c(-c2ncco2)nc1N (single isomer, unassigned) [Cmpd. 202]" assay_target="hA2a/CHO (Homo sapiens (Human), UniProt P29274)" parameter_measured=IC50 reported_value="17 nM"
molecule="CN1CCC[C@H]1CNC(=O)c1nc(-c2ccc3ncn(C)c3c2)c(-n2nccn2)nc1N [Example 130]" assay_target="hA2a/CHO (Homo sapiens (Human), UniProt P29274)" parameter_measured=IC50 reported_value="295 nM"
molecule="Cc1cnc2ccc(-c3nc(C(=O)NCC4CCCN(C)C4=O)c(N)nc3-c3ncco3)cn12 (single isomer, unassigned; isomer 2) [Example 254]" assay_target="hA2a/CHO (Homo sapiens (Human), UniProt P29274)" parameter_measured=IC50 reported_value="0.7 nM"
molecule="Cn1cc(-c2nc(C(=O)NCc3c(F)cccc3F)c(N)nc2-n2nccn2)ccc1=O [Example 35]" assay_target="hA2a/CHO (Homo sapiens (Human), UniProt P29274)" parameter_measured=IC50 reported_value="15 nM"
molecule="CN(C)c1cccc(CNC(=O)c2nc(-c3ccc(=O)n(C)c3)c(-c3ncco3)nc2N)c1F [Example 33]" assay_target="hA2a/CHO (Homo sapiens (Human), UniProt P29274)" parameter_measured=IC50 reported_value="56 nM"
molecule="Cc1cnc2ccc(-c3nc(C(=O)NCC4CN(C)CCO4)c(N)nc3-c3ccc(F)cc3)cn12 (single isomer, unassigned; isomer 1) [Example 246]" assay_target="hA2a/CHO (Homo sapiens (Human), UniProt P29274)" parameter_measured=IC50 reported_value="17 nM"

Now turn to the next molecule.
For CNCCOc1cccnc1CNC(=O)c1nc(-c2ccc3ncc(C)n3c2)c(-c2ncco2)nc1N [Example 301] , what is its reported IC50?
3 nM
